system: Staphylococcus aureus; assay: MIC, broth two-fold serial dilution test, Staphylococcus aureus (Saur); type: cell-based; conditions: M9G
Reported values of MIC for individual entries

[
  {
    "MOLECULE": "O=C1CN(CC#CI)C(=O)N1c1cc(Cl)cc(Cl)c1",
    "READOUT_QUALIFIER": "=",
    "MIC [µg/mL]": 16
  },
  {
    "MOLECULE": "CC1C(=O)N(c2ccc(Cl)cc2)C(=O)N1CC#CI (centres unmarked)",
    "READOUT_QUALIFIER": ">",
    "MIC [µg/mL]": 500
  },
  {
    "MOLECULE": "CCCCCCCCN1C(=O)N(CC#CI)C(C)(C)C1=O",
    "READOUT_QUALIFIER": "=",
    "MIC [µg/mL]": 2
  },
  {
    "MOLECULE": "C#CCN1C(=O)N(Cc2ccccc2)C(=O)C1(C)C [Compound 8, reference compound]",
    "READOUT_QUALIFIER": ">",
    "MIC [µg/mL]": 500
  },
  {
    "MOLECULE": "CC(C)(C#CI)N1CC(=O)N(c2cc(Cl)cc(Cl)c2)C1=O",
    "READOUT_QUALIFIER": ">",
    "MIC [µg/mL]": 500
  },
  {
    "MOLECULE": "O=C1N(c2cc(Cl)cc(Cl)c2)C(=O)C2(CCCC2)N1CC#CI",
    "READOUT_QUALIFIER": ">",
    "MIC [µg/mL]": 500
  },
  {
    "MOLECULE": "O=C1CNC(=O)N1CC#CI",
    "READOUT_QUALIFIER": "=",
    "MIC [µg/mL]": 64
  },
  {
    "MOLECULE": "C#CCN1C(=O)N(c2cc(Cl)cc(Cl)c2)C(=O)C1C (centres unmarked) [Compound 1', reference compound]",
    "READOUT_QUALIFIER": ">",
    "MIC [µg/mL]": 500
  },
  {
    "MOLECULE": "C#CCN1C(=O)NC(C)(C)C1=O [Compound 12, 3-(2-propynyl)-5,5-dimethylhydantoin, reference compound]",
    "READOUT_QUALIFIER": ">",
    "MIC [µg/mL]": 500
  },
  {
    "MOLECULE": "CC1(C)C(=O)N(c2cc(Cl)cc(Cl)c2)C(=O)N1CC#CI",
    "READOUT_QUALIFIER": "=",
    "MIC [µg/mL]": 8
  },
  {
    "MOLECULE": "CC1C(=O)N(c2ccc(F)cc2)C(=O)N1CC#CI (centres unmarked)",
    "READOUT_QUALIFIER": ">",
    "MIC [µg/mL]": 500
  },
  {
    "MOLECULE": "CC1(C)C(=O)N(CC#CI)C(=O)N1CC#CI",
    "READOUT_QUALIFIER": "=",
    "MIC [µg/mL]": 32
  },
  {
    "MOLECULE": "CCCCN1C(=O)N(CC#CI)C(C)(C)C1=O",
    "READOUT_QUALIFIER": "=",
    "MIC [µg/mL]": 4
  },
  {
    "MOLECULE": "O=C1N(c2cc(Cl)cc(Cl)c2)C(=O)C2(CCCCC2)N1CC#CI",
    "READOUT_QUALIFIER": ">",
    "MIC [µg/mL]": 500
  },
  {
    "MOLECULE": "CC1(C)C(=O)N(CC#CI)C(=O)N1Cc1ccccc1",
    "READOUT_QUALIFIER": ">",
    "MIC [µg/mL]": 500
  },
  {
    "MOLECULE": "CC1(C)C(=O)N(Cc2ccccc2)C(=O)N1CC#CI",
    "READOUT_QUALIFIER": "=",
    "MIC [µg/mL]": 16
  },
  {
    "MOLECULE": "C#CCN1C(=O)N(Cc2ccccc2)C(C)(C)C1=O [Compound 14, reference compound]",
    "READOUT_QUALIFIER": ">",
    "MIC [µg/mL]": 500
  },
  {
    "MOLECULE": "C#CCN1C(=O)N(CC#C)C(C)(C)C1=O [Compound 11, reference compound]",
    "READOUT_QUALIFIER": ">",
    "MIC [µg/mL]": 500
  },
  {
    "MOLECULE": "CC1C(=O)N(c2cc(Cl)cc(Cl)c2)C(=O)N1CC#CI (centres unmarked)",
    "READOUT_QUALIFIER": ">",
    "MIC [µg/mL]": 500
  },
  {
    "MOLECULE": "CC1(C)NC(=O)N(CC#CI)C1=O",
    "READOUT_QUALIFIER": "=",
    "MIC [µg/mL]": 125
  }
]
